system: HCT116 cells; assay: MTT assay; assay type: cell-based; conditions: Homo sapiens, HCT-116, 72 h, Table 5E; HCT116 cells, 72 hours
pIC50: −log10 of the molar value.
measure: pIC50

COc1cc(OC)nc(NCc2ccc(C(=O)Nc3ccccc3N)cc2)n1 6.15

[A] Nc1ccccc1NC(=O)c1ccc(CSc2ccc3ccccc3n2)cc1
[B] Nc1ccccc1NC(=O)c1ccc(Cn2cnc3ccccc3c2=O)cc1
[C] COc1ccc(CSc2ccc(C(=O)Nc3ccccc3N)cn2)cc1
[D] COc1cccc(-c2ccc(C(=O)Nc3ccccc3N)cn2)c1
Query: Form: Sort by [pIC50] Order [ ascending ] Respond with an ordered listing of the labels, as requested.
Reply: D, C, A, B
(D: 5.00, C: 5.52, A: 6.05, B: 6.40)

[A] Nc1ccccc1NC(=O)c1ccc(CCN2C(=O)c3ccccc3C2=O)cc1
[B] COc1ccc(CNc2ccc3cc(C(=O)Nc4ccccc4N)ccc3n2)cc1
[C] Nc1ccccc1NC(=O)c1ccc(Cn2c(=O)[nH]c3ccccc3c2=O)cc1
[D] Nc1ccccc1NC(=O)c1ccc(CSc2nc3ccc(NCCN4CCOCC4)cc3s2)cc1
Query: Form: Sort by [pIC50] Order [ ascending ] Respond with an ordered listing of the labels, as requested.
Reply: A, B, C, D

[A] Nc1ccccc1NC(=O)c1ccc(Cn2nnc3ccccc3c2=O)cc1
[B] Nc1ccccc1NC(=O)c1ccc(CSc2nc3ccccc3[nH]2)cc1
Query: Which entry has a larger number for pIC50, A or B ? Respond with the label that goes with your answer.
Reply: B
(B: 6.70, A: 6.40)

----------
molecular target: cloned recombinant human HDAC-1 (Homo sapiens, UniProt Q13547); construct: made in house; host or cells: Baculovirus insect cell expression system; experiment: Human HDAC-1 enzyme inhibition, Assay 1 ([3H]-acetylated histone substrate, scintillation counting); format: biochemical; settings: Table 5F; read-out: Human HDAC-1 IC50
Sequence (Q13547 whole entry): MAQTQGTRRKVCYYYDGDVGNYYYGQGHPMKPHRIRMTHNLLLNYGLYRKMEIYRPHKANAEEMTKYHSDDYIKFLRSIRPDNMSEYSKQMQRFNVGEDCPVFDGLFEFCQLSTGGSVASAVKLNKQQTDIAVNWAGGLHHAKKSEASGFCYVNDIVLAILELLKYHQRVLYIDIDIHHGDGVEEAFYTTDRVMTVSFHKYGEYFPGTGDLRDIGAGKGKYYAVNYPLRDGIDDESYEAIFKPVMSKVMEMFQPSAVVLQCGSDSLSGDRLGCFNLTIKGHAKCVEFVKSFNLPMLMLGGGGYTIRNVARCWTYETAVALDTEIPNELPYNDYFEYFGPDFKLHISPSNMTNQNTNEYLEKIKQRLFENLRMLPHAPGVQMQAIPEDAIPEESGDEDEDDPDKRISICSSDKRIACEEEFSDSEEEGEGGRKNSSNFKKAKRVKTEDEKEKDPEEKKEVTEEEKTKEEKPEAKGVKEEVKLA
pIC50: −log10 of the molar value.
measure: pIC50

Completed entries (count: 4):
Nc1ccccc1NC(=O)c1ccc(CNc2ccc3[nH]c(=O)[nH]c3c2)cc1 6.00
Nc1ccccc1NC(=O)c1ccc(CNc2nccc3ccccc23)cc1 4.85
Nc1ccccc1NC(=O)c1ccc(CSc2nc3ccc(NCc4cccnc4)cc3s2)cc1 6.52
Cc1cc(C)c(NCc2ccc(C(=O)Nc3ccccc3N)cc2)c(C)c1 6.05

[1] CC(=O)Nc1sc(Cc2ccc(C(=O)Nc3ccccc3N)cc2)cc1C(N)=O
[2] Nc1ccccc1NC(=O)c1ccc(CSc2cccc3cccnc23)cc1
Query: Which entry has a larger number for pIC50, 1 or 2 ? Respond with the label that goes with your answer.
Reply: 2
(2: 6.00, 1: 5.70)

----------
Target: cloned recombinant human HDAC-1 (Homo sapiens)
Construct: made in house; host or cells: Baculovirus insect cell expression system
Assay: Human HDAC-1 enzyme inhibition, Assay 1 ([3H]-acetylated histone substrate, scintillation counting)
Type: biochemical
Conditions: Table 5a; read-out: Human HDAC-1 IC50
Protocol: Assay 1. HDAC inhibitors were screened against a cloned recombinant human HDAC-1 enzyme expressed and purified from a Baculovirus insect cell expression system. […] The mixture was extracted with ethyl acetate and the released [^3H]-acetic acid was quantified by scintillation counting. […] IC50 values for HDAC enzyme inhibitors were determined by performing dose response curves with individual compounds and determining the concentration of inhibitor producing fifty percent of the maximal inhibition.
pIC50: −log10 of the molar value.
measure: pIC50

Completed entries (count: 2):
molecule	pIC50
Nc1nc(NCCc2ccccc2)nc(NCc2ccc(C(=O)Nc3ccccc3N)cc2)n1	6.30
Nc1nc(NCc2ccc(C(=O)Nc3ccccc3N)cc2)nc(N2CCOCC2)n1	5.70

[P] Nc1nc(NCc2ccc(C(=O)Nc3ccccc3N)cc2)nc(N2Cc3ccccc3C2)n1
[Q] Nc1nc(NCc2ccc(C(=O)Nc3ccccc3N)cc2)nc(N2CCCCC2)n1
Query: Which entry has a larger number for pIC50, P or Q ? Respond with the label that goes with your answer.
Reply: Q
